Attribution: patent US12427146B2

System: CSK protein (Homo sapiens (Human), UniProt P41240) | Read-out: pIC50
Sequence (P41240 whole entry): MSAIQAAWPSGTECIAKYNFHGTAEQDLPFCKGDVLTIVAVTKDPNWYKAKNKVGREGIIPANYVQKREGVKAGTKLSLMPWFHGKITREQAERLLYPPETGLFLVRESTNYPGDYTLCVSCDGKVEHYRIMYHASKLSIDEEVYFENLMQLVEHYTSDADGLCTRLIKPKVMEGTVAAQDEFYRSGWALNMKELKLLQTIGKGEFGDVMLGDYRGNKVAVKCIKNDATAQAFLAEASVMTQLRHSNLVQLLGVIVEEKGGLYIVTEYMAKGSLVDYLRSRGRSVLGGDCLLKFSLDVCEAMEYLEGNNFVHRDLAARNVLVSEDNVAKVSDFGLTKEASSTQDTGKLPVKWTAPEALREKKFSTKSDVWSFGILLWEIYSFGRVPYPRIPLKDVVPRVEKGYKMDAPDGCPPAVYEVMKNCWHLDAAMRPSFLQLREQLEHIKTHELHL
Hey, just a heads up that pIC50 is the negative log base 10 of the concentration in molar.

Respond only with pIC50 recorded for CNc1nccc(-c2sc(-c3cncc(F)c3)nc2-c2cccc(NS(=O)(=O)c3c(F)ccc(C)c3F)c2F)n1 [Compound 53] 7.81

Note down pIC50 recorded for Nc1nccc(-c2c(-c3cccc(NS(=O)(=O)c4c(F)cccc4F)c3F)nc(-c3ccccc3)n2O)n1 [Compound 84] 6.88

Give the measured pIC50 for Nc1ncc(-c2nc(-c3cccc(NS(=O)(=O)c4c(F)cccc4F)c3F)c(-c3ccnc(N)n3)s2)cn1 [compound 6] 7.70

Please supply the value of reported pIC50 for the item CNc1nccc(-c2sc(-c3cncnc3)nc2-c2cccc(NS(=O)(=O)c3c(F)cccc3F)c2F)n1 [Compound 63] 7.69

Please give the documented pIC50 of CNc1nccc(-c2sc(-c3ccc(F)cn3)nc2-c2cccc(NS(=O)(=O)c3c(F)cccc3F)c2F)n1 [compound 34] 7.37

Provide pIC50 value for the following molecule: Cc1ccc(-c2nc(-c3cccc(NS(=O)(=O)c4c(Cl)ccc(C)c4Cl)c3F)c(-c3ccnc(NC4CC4)n3)s2)nn1 [Compound 175] 8.19

Quote pIC50 reported for O=S(=O)(Nc1cccc(-c2nc(-c3ccccc3)sc2-c2ccnc(Nc3ccc(N4CCOCC4)nc3)n2)c1F)c1c(F)cccc1F [compound 3] please. 7.87

----------
reported-property: IC50

Given Cc1ncc(-c2nc(-c3cccc(NS(=O)(=O)c4c(Cl)cccc4Cl)c3F)c(-c3ccnc(NCCO)n3)s2)cn1 [Compound 150] , report its IC50 on LCK protein (Homo sapiens (Human), UniProt P06239). > 1000 nM

Please respond with reported IC50 (system LCK protein (Homo sapiens (Human), UniProt P06239)) for COc1ccc(-c2nc(-c3cccc(NS(=O)(=O)c4c(F)cccc4F)c3F)c(-c3ccnc(N)n3)s2)nc1 [Compound 30] . 100 to 1000 nM

Provide IC50, system LCK protein (Homo sapiens (Human), UniProt P06239), entry O=S(=O)(Nc1cccc(-c2nc(-c3ccccc3)sc2-c2ccnc(Nc3ccc(N4CCOCC4)nc3)n2)c1F)c1c(F)cccc1F [compound 3] < 100 nM

GET IC50 where system = LCK protein (Homo sapiens (Human), UniProt P06239) and item = CNc1nccc(-c2sc(-c3ccc(F)cn3)nc2-c2cccc(NS(=O)(=O)c3c(Cl)ccc(C)c3Cl)c2F)n1 [Compound 126] > 1000 nM

Under LCK protein (Homo sapiens (Human), UniProt P06239): report IC50 of Nc1nccc(-c2c(-c3cccc(NS(=O)(=O)c4c(F)cccc4F)c3F)nc(-c3ccccc3)n2O)n1 [Compound 84] . > 1000 nM

State the measured IC50 (LCK protein (Homo sapiens (Human), UniProt P06239)) of Nc1nccc(-c2sc(-c3ccccc3)nc2-c2cccc(NS(=O)(=O)c3c(F)cccc3F)c2)n1 [Compound 18] > 1000 nM

Output reported IC50 of the molecule Nc1nccc(-c2sc(N3CCCCC3)nc2-c2cccc(NS(=O)(=O)c3c(F)cccc3F)c2F)n1 [Compound 111] on LCK protein (Homo sapiens (Human), UniProt P06239). 100 to 1000 nM

Fill: IC50 (LCK protein (Homo sapiens (Human), UniProt P06239)) for this molecule Cc1ccc(F)c(S(=O)(=O)Nc2cccc(-c3nc(-c4cc(F)ccn4)sc3-c3ccnc(N)n3)c2F)c1F [Compound 52] > 1000 nM

For LCK protein (Homo sapiens (Human), UniProt P06239), give IC50 of the listed molecule: CNc1nccc(-c2sc(N3CCCC3=O)nc2-c2cccc(NS(=O)(=O)c3c(F)cccc3F)c2F)n1 [Compound 113] > 1000 nM

Provide the reported IC50 (system: LCK protein (Homo sapiens (Human), UniProt P06239)) for Cc1cc(F)c(S(=O)(=O)Nc2cccc(-c3nc(-c4ccccc4)sc3-c3ccnc(N)n3)c2F)c(F)c1 [Compound 35] > 1000 nM

Give the observed IC50 of COc1ccn2c(-c3ccnc(N)n3)c(-c3cccc(NS(=O)(=O)c4c(F)cccc4F)c3F)nc2c1 [compound 91] for LCK protein (Homo sapiens (Human), UniProt P06239). > 1000 nM

Report value only: IC50, LCK protein (Homo sapiens (Human), UniProt P06239), Nc1nccc(-c2c(-c3cccc(NS(=O)(=O)c4c(F)cccc4F)c3F)nc3ccccn23)n1 [compound 90] > 1000 nM

Give IC50 for this entry on LCK protein (Homo sapiens (Human), UniProt P06239): C[C@H](Nc1nccc(-c2sc(-c3ccccc3)nc2-c2cccc(NS(=O)(=O)c3c(F)cccc3F)c2F)n1)C(N)=O [Compound 44] > 1000 nM

Give IC50 for CNc1nccc(-c2c(-c3cccc(NS(=O)(=O)c4c(F)ccc(C)c4F)c3F)nc3cc(F)ccn23)n1 [Compound 107] tested on LCK protein (Homo sapiens (Human), UniProt P06239). > 1000 nM

----------
pIC50: −log10 of the molar value.
reported-property: pIC50

Fill in pIC50 for Cc1ccc(-c2nc(-c3cccc(NS(=O)(=O)c4c(F)cccc4F)c3F)c(-c3ccnc(N)n3)s2)nc1 tested with LCK protein (Homo sapiens (Human), UniProt P06239). 6.00 to 7.00

Output reported pIC50 of the molecule Cc1ccc(Cl)c(S(=O)(=O)Nc2cccc(-c3nc(-c4ccc(F)cn4)sc3-c3ccnc(NCCO)n3)c2F)c1Cl on LCK protein (Homo sapiens (Human), UniProt P06239). < 6.00

Write pIC50 of Nc1nccc(-c2sc(C3CCNCC3)nc2-c2cccc(NS(=O)(=O)c3c(F)cccc3F)c2F)n1 ; system used: LCK protein (Homo sapiens (Human), UniProt P06239) 6.00 to 7.00

Specify pIC50 for CNc1nccc(-c2sc(-c3ccc(F)cn3)nc2-c2cccc(NS(=O)(=O)c3c(F)ccc(Cl)c3F)c2F)n1 , system LCK protein (Homo sapiens (Human), UniProt P06239). < 6.00

Look up and report measured pIC50 (LCK protein (Homo sapiens (Human), UniProt P06239)) for the following molecule: CN(C)c1nc(-c2cccc(NS(=O)(=O)c3c(F)ccc(Cl)c3F)c2F)c(-c2ccnc(NC3CC3)n2)s1 < 6.00

Consider the molecule CNc1nccc(-c2sc(NCC(F)(F)F)nc2-c2cccc(NS(=O)(=O)c3c(F)cccc3F)c2F)n1 tested on LCK protein (Homo sapiens (Human), UniProt P06239); state its pIC50. 6.00 to 7.00

Please indicate recorded pIC50 of CN1CCN(c2ccc(Nc3nccc(-c4sc(C(C)(C)C)nc4-c4cccc(NS(=O)(=O)c5c(F)cccc5F)c4F)n3)cn2)CC1 measured with LCK protein (Homo sapiens (Human), UniProt P06239). > 7.00

State measured pIC50 of the molecule COc1ccc(-c2nc(-c3cccc(NS(=O)(=O)c4c(F)cccc4F)c3F)c(-c3ccnc(N)n3)s2)cn1 with LCK protein (Homo sapiens (Human), UniProt P06239). 6.00 to 7.00

State, for LCK protein (Homo sapiens (Human), UniProt P06239), measured pIC50 of the molecule listed here: CNc1nccc(-c2c(-c3cccc(NS(=O)(=O)c4c(F)cccc4F)c3F)nc3cc(OC)ccn23)n1 < 6.00

Tell me pIC50 of CNc1nccc(-c2sc(-c3ccc(F)cn3)nc2-c2cccc(NS(=O)(=O)c3c(F)cc(Cl)cc3F)c2F)n1 when tested on LCK protein (Homo sapiens (Human), UniProt P06239). < 6.00

Please report pIC50 with LCK protein (Homo sapiens (Human), UniProt P06239) for item O=S(=O)(Nc1cccc(-c2nc(N3CCCCC3)sc2-c2ccnc(NC3CC3)n2)c1F)c1c(F)cccc1F . 6.00 to 7.00

# assay system LCK protein (Homo sapiens (Human), UniProt P06239): give pIC50 of CNc1nccc(-c2sc(N3CCCCC3)nc2-c2cccc(NS(=O)(=O)c3c(Cl)ccc(C)c3Cl)c2F)n1 < 6.00

Enter pIC50 (test system LCK protein (Homo sapiens (Human), UniProt P06239)) for CCn1cc(-c2nc(-c3cccc(NS(=O)(=O)c4c(F)cccc4F)c3F)c(-c3ccnc(N)n3)s2)cn1 6.00 to 7.00

Fill in: pIC50 on LCK protein (Homo sapiens (Human), UniProt P06239), entry O=S(=O)(Nc1cccc(-c2nc(-c3cncc(F)c3)sc2-c2ccnc(NC3CC3)n2)c1F)c1c(F)ccc(Cl)c1F < 6.00

Consider the molecule COc1ccn2c(-c3ccnc(NCCO)n3)c(-c3cccc(NS(=O)(=O)c4c(Cl)cccc4Cl)c3F)nc2c1 tested on LCK protein (Homo sapiens (Human), UniProt P06239); state its pIC50. < 6.00

# return pIC50 of CNc1nccc(-c2sc(-c3cnc(C)nc3)nc2-c2cccc(NS(=O)(=O)c3c(Cl)ccc(C)c3Cl)c2F)n1 (system: LCK protein (Homo sapiens (Human), UniProt P06239)) < 6.00

Consider the molecule CNc1nccc(-c2sc(N3CCCC3)nc2-c2cccc(NS(=O)(=O)c3c(F)cccc3F)c2F)n1 tested on LCK protein (Homo sapiens (Human), UniProt P06239); state its pIC50. < 6.00

Check LCK protein (Homo sapiens (Human), UniProt P06239) data and give pIC50 for CCOc1ncc(-c2nc(-c3cccc(NS(=O)(=O)c4c(F)cccc4F)c3F)c(-c3ccnc(N)n3)s2)cn1 . < 6.00

Under LCK protein (Homo sapiens (Human), UniProt P06239), report pIC50 for Cc1ccc(Cl)c(S(=O)(=O)Nc2cccc(-c3nc(-c4cncc(F)c4)sc3-c3ccnc(NCCO)n3)c2F)c1Cl < 6.00

Tell me its pIC50 on LCK protein (Homo sapiens (Human), UniProt P06239): CC(C)Oc1ccn2c(-c3ccnc(N)n3)c(-c3cccc(NS(=O)(=O)c4c(F)cccc4F)c3F)nc2c1 < 6.00

Provide pIC50, recorded with LCK protein (Homo sapiens (Human), UniProt P06239), of Cc1cccn2c(-c3ccnc(N)n3)c(-c3cccc(NS(=O)(=O)c4c(F)cccc4F)c3F)nc12 < 6.00

Fetch value of pIC50 on LCK protein (Homo sapiens (Human), UniProt P06239) for Cc1ccc(-c2nc(-c3cccc(NS(=O)(=O)c4c(F)ccc(C)c4F)c3F)c(-c3ccnc(NCCO)n3)s2)nn1 . < 6.00

Specify pIC50 for CCc1ccn2c(-c3ccnc(N)n3)c(-c3cccc(NS(=O)(=O)c4c(F)cccc4F)c3F)nc2c1 , system LCK protein (Homo sapiens (Human), UniProt P06239). < 6.00

Fill: pIC50 (LCK protein (Homo sapiens (Human), UniProt P06239)) for this molecule CNc1nccc(-c2sc(NC)nc2-c2cccc(NS(=O)(=O)c3c(F)cccc3F)c2F)n1 6.00 to 7.00

Please tell me the measured pIC50 for Nc1nccc(-c2sc(-c3ccccc3)nc2-c2cccc(NS(=O)(=O)c3c(F)cccc3F)c2F)n1 ; system: LCK protein (Homo sapiens (Human), UniProt P06239). < 6.00

Lab note: LCK protein (Homo sapiens (Human), UniProt P06239) assay, enter pIC50 for CNc1nccc(-c2sc(-c3ccc(F)cn3)nc2-c2cccc(NS(=O)(=O)c3c(F)ccc(C)c3F)c2F)n1 here < 6.00

Provide pIC50, recorded with LCK protein (Homo sapiens (Human), UniProt P06239), of Nc1nccc(-c2sc(-c3cnccn3)nc2-c2cccc(NS(=O)(=O)c3c(F)cccc3F)c2F)n1 < 6.00

Under LCK protein (Homo sapiens (Human), UniProt P06239), report pIC50 for Cc1ccc(-c2nc(-c3cccc(NS(=O)(=O)c4c(F)ccc(C)c4F)c3F)c(-c3ccnc(NC4CC4)n3)s2)nn1 < 6.00
